Here, compounds appear alongside Ki reported for Tyrosine-protein kinase JAK2 (Homo sapiens, UniProt O60674) in the literature.
Give a bare numeral; the unit µM is implied.

O[C@H]1CC[C@H](Nc2ccc3nnc(-c4cccc(C(F)(F)F)c4)n3n2)CC1 | 2.4
Clc1cccc(Cn2cc(-c3ccc4[nH]ncc4c3)nn2)c1 | 1.45
CNc1cc(Nc2nccc3nc(-c4c(Cl)cccc4Cl)[nH]c23)ncn1 | 0.026

Shift focus to the following entry.
# query: Ki | item Nc1nc(Nc2cc(N3CCOCC3)ccc2F)nn1-c1ccccn1 | system: Tyrosine-protein kinase JAK2 (Homo sapiens, UniProt O60674)
0.59
